Values from PubChem BioAssay (NCATS)

System: NIH3T3
Experiment: Cytotoxic Profiling of Annotated Libraries Using Quantitative High-Throughput Screening (AID 1296008); note: nearly all actives have a fitted effect of over 60% in size; for max response: % is set by controls: 0 for no effect and ±100 for the full control effect
Conditions: Five cell lines viability, CellTiter-Glo ATP luminescence, 48-72 h; hits give low values
Records with an inconclusive call do not appear.
quantity: max response (%)
I only need the number, in %, no unit after it.

In the examples that follow, each entry is paired with its recorded max response.
compound: CC1(C)CC2C(C1)C(C)(O)C13CC1(COC3=O)C2O (stereo not given)
unit_tag: %
max response: -6.54

compound: CC1(C(=O)O)CCCC2(C)C3=CCC4CC3(CCC12)CC4CO (stereo not given)
unit_tag: %
max response: -1.37

compound: CC1(c2nc3c(C(N)=O)cccc3[nH]2)CCCN1 (stereo not given)
unit_tag: %
max response: -5.13

compound: C[C@@H]1CCC/C=C/[C@H]2CC(=O)C[C@@H]2[C@@H](O)/C=C/C(=O)O1
unit_tag: %
max response: -2.1

compound: CC1=C2C[C@H]3O[C@@]3(C)CCC3O[C@@]3(C)C[C@@]2(O)OC1=O (stereo not given in full)
unit_tag: %
max response: 2.41

compound: O=C(Nc1nc2ccccc2n1CCc1ccccc1)c1ccccc1
unit_tag: %
max response: -1.28

Field: next compound
Entry under review: CC1(C)CC2C(O)c3cocc3CC(C)(O)C2C1 (stereo not given) . Reported max response?
2.81

###

Test: Primary qHTS for inhibitors of nuclear receptor binding SET domain protein 2 (NSD2) in an RCH-ACV wild type WT cells (2C) (AID 1645877); note: nearly all actives have a fitted effect of over 70% in size
Conditions: RCH-ACV (leukaemia line) NSD2 WT (2C) viability, CellTiter-Glo, 72 h; series mostly up to 44.9 µM
Records with an inconclusive call do not appear. The source made the active and inactive calls. The call rests on the fitted dose curve; in most records, active means well fitted inhibition curve with a large enough effect; inconclusive means small, poorly fitted or top-dose-only effect; inactive means no such curve, though single readings can be large or run the other way.
Valid outcomes are listed here; reply with one: active, inactive

Examples from the recorded data:
compound: Cc1[nH]nc(C(F)(F)F)c1Cc1sc2c(c1C(=O)N1C[C@](C)(O)CO1)c(=O)n(C)c(=O)n2C(C)C
group_label: inactive
--
compound: COc1ccc(C2(O)c3ccccc3NC(=O)C2O)cc1 (centres undefined)
group_label: inactive
--
compound: C[C@@H]1C(=O)O[C@H]2[C@@H](O)C34[C@H]5C[C@@H](C(C)(C)C)C36[C@@H](OC(=O)[C@@H]6O)O[C@@]4(C(=O)O5)[C@@]12O (some centres undefined)
group_label: inactive

I would be grateful if you could indicate the recorded call for CNC(=S)NS(=O)(=O)c1cc(CCNC(=O)c2cc(Cl)ccc2OC)ccc1OC .
inactive

// same read-out, input: C[C@@H]1C(=O)O[C@H]2C[C@]34[C@H]5C[C@@H](C(C)(C)C)[C@]36[C@@H](OC(=O)[C@H]6O)O[C@]4(C(=O)O5)[C@]21O
inactive

Repeat with COc1cc(/C=C/C(=O)O[C@H]2[C@H](O)[C@@H](CO)O[C@@]2(CO)O[C@H]2O[C@H](CO)[C@@H](O)[C@H](O)[C@H]2O)ccc1O
inactive

Moving on to the next compound: CC[C@@H](O)C[C@@H]1C(C)=C[C@@H]2CCCC[C@@H]2[C@@]1(C)C(=O)O
inactive

Subsequent entry: C=C1C(=O)O[C@@H]2/C=C(\C)C(=O)/C=C/[C@](C)(O)C[C@@H](OC(=O)C(C)C)[C@@H]12
active

Then this compound: CN(C)C1CCN(C(=O)c2ccc(NC(=O)Nc3ccc(-c4nc(N5CCOCC5)nc(N5CCOCC5)n4)cc3)cc2)CC1
active

Continue with CC(=O)CC1CCC(C(C)C(=O)OCC(O)CO)O1 (centres undefined)
inactive

Then CN(C)C/C=C/C(=O)Nc1cc2c(Nc3ccc(F)c(Cl)c3)ncnc2cc1OC1CCOC1 (centres undefined) ?
active

And what about the compound CCOC(=O)C(CCc1ccccc1)NC(C)C(=O)N1C(=O)N(C)CC1C(=O)O (centres undefined) ?
inactive

Next: C=CC/C=C\C/C=C\CCCCCCCc1cccc(O)c1C(=O)O
inactive

Item: c1cc(Nc2cc(C3CC3)[nH]n2)nc(Nc2ccc3nc[nH]c3c2)n1
active

###

Test system: HEK293
Assay: Cytotoxic Profiling of Annotated Libraries Using Quantitative High-Throughput Screening (AID 1296008); note: nearly all actives have a fitted effect of over 60% in size; note: potency is the fitted concentration of half-maximal effect
Details: Five cell lines viability, CellTiter-Glo ATP luminescence, 48-72 h
Records with an inconclusive call do not appear. Calls of active or inactive are those of the source. Calls come from the whole dose curve; as a rule, active = well fitted inhibition curve with a large enough effect; inconclusive = small, poorly fitted or top-dose-only effect; inactive = flat fitted curve, though single readings scatter.
quantity: Potency

Recorded results for 8 compounds are shown here.
compound: Cc1cc(O)c(-c2ccc([C@@H](C)CN(C)C)cc2)c2c1[nH]c(=O)c1sccc12
measurement_target: HEK293
measured_value: 0.0259 µM (active)
--
compound: CC[C@@H](N)CNc1ccnc(-c2cc(-c3cnn(C)c3)ccc2O)n1
measurement_target: HEK293
measured_value: 5.17 µM (active)
--
compound: Cc1ccc(-c2ccc3ncc4c(c3n2)n(C2CCN(C(=O)[C@H](C)O)CC2)c(=O)n4C)cn1
measurement_target: HEK293
measured_value: 0.082 µM (active)
--
compound: Cc1ccc(NC(=O)Nc2cc(C(F)(F)F)ccc2F)cc1Nc1ccc2c(c1)NC(=O)/C2=C\c1ccc[nH]1
measurement_target: HEK293
measured_value: 11.6 µM (active)
--
compound: CC1=C(CO)C(=O)O[C@@H]([C@@H](C)[C@H]2CC[C@H]3[C@@H]4C[C@H]5O[C@]56[C@@H](O)C=CC(=O)[C@]6(C)[C@H]4CC[C@]23C)C1
measurement_target: HEK293
measured_value: 1.12 µM (active)
--
compound: Cn1nnc(-c2ccc(-c3ccc(N4C[C@H](COP(=O)(O)O)OC4=O)cc3F)cn2)n1
measurement_target: HEK293
measured_value: 0.58 µM (active)
--
compound: c1cn2cc(-c3ccc4cn[nH]c4c3)nc(Nc3ccc(N4CCOCC4)cc3)c2n1
measurement_target: HEK293
measured_value: 18.4 µM (active)
--
compound: Cc1ccc(N)cc1O
measurement_target: HEK293
measured_value: 43.3 µM (active)

What Potency value was documented for this compound, Cc1ccc(NC(=O)c2ccc(CN3CC[C@H](N(C)C)C3)c(C(F)(F)F)c2)cc1Nc1nccc(-c2cncnc2)n1 ?
5.63 µM (active)

Now the compound CNC(=O)c1ccccc1Nc1nc(Nc2ccc3c(c2OC)CCCC(N2CCN(CCO)CC2)C3)ncc1Cl (configuration not stated)
5.17 µM (active)

Please answer likewise for O=C(CC(c1ccccc1)c1ccccc1)N1CCN(C(c2ccccc2)c2ccccc2)CC1
20.6 µM (active)

Now the compound CO[C@H]1C[C@@H]2CC[C@@H](C)[C@@](O)(O2)C(=O)C(=O)N2CCCC[C@H]2C(=O)O[C@H]([C@H](C)C[C@@H]2CC[C@H](n3cnnn3)[C@H](OC)C2)CC(=O)[C@H](C)/C=C(\C)[C@@H](O)[C@@H](OC)C(=O)[C@H](C)C[C@H](C)/C=C/C=C/C=C/1C
0.0252 µM (active)

###

Tested on: KB-3-1
Assay: Cytotoxic Profiling of Annotated Libraries Using Quantitative High-Throughput Screening (AID 1296008); note: nearly all actives have a fitted effect of over 60% in size; for max response: % is set by controls: 0 for no effect and ±100 for the full control effect
Conditions: Five cell lines viability, CellTiter-Glo ATP luminescence, 48-72 h; hits give low values
Records with an inconclusive call do not appear.
quantity: max response (%)
Please give a number only; it is taken to be in %.

Guide cases for max response, answers given:
molecule: Cc1cc(NC(=O)Nc2ccc(F)c(F)c2)n(-c2ccccc2)n1
measured_value: 4.72

molecule: Nc1nc2c(c(N3CCNCC3)n1)CCC1=C2[C@@H]2CCCC[C@@H]2O1
measured_value: -5.74

molecule: CC12CCC(C(OC3OC(COC4OCC(O)(CO)C4O)C(O)C(O)C3O)C1)C(C)(C)O2 (stereo not given)
measured_value: 1.72

molecule: CC(=O)N[C@@H](C(=O)O[C@H]1CCC(C)(C)[C@@H]2CCC3=C(COC3=O)[C@@]12C)C(C)C
measured_value: -11.9

molecule: CC1CCC2(OC1)OC1CC3C4CCC5C[C@@H](O[C@@H]6O[C@H](CO[C@@H]7OC[C@@H](O)[C@H](O)[C@H]7O)[C@H](O)[C@H](O)[C@H]6O)CC[C@]5(C)C4CC[C@]3(C)C1C2C (stereo not given in full)
measured_value: 9.78

molecule: O=C1C=CC(O)(/C=C/C(=O)OC[C@H]2O[C@@H](Oc3ccc(O)cc3)[C@H](O)[C@@H](O)[C@@H]2O)C=C1
measured_value: -7.33

molecule: CC(C)CC(=O)OC1OC=C(CO[C@@H]2O[C@H](CO)[C@@H](O)[C@H](O)[C@H]2O)C2CC(O)C(O)(CO)C12 (stereo not given in full)
measured_value: 2.5

molecule: N=c1nc2n(cc1F)C1OC(CO)C(O)C1O2 (stereo not given)
measured_value: -7.19

molecule: CC(=O)NC1C(OC(C)(C)C2CCC3(C)C=C(C4CCC5C4(C)CC(O)C4OC(C(C)(C)O)CCC45C)CCC3O2)OC(CO)C(O)C1O (stereo not given)
measured_value: -23.5

For the molecule COC(=O)C[C@H]1[C@]2(C)C3=C(C)[C@H](c4ccoc4)C[C@H]3O[C@@H]2[C@H](OC(C)=O)C2[C@](C)(C(=O)OC)C=CC(=O)[C@@]21C (stereo not given in full) , what max response is on record?
1.1
